measurementNotes: solvent given as SMILES
appliedConditions: in O
Label key: class 1 means solvation free energy, 298 K under -2 kcal/mol; class 0 means solvation free energy, 298 K of -2 kcal/mol or more.

compound: CCCCCC=CCC=CCCCCCCCC(=O)OC
categoryLabel: class 1
--
compound: Oc1c(Cl)c(Cl)c(Cl)c(Cl)c1Cl
categoryLabel: class 1
--
compound: O=C(O)c1ccc2ccccc2c1
categoryLabel: class 1

### Prompt For this compound, is solvation free energy, 298 K lower than -2 kcal/mol? Nc1ccc(N)c2c1C(=O)c1ccccc1C2=O
### Response class 1

### Prompt Decide: solvation free energy, 298 K of CC(C)CCl strictly below -2 kcal/mol?
### Response class 0

### Prompt Find out if reported solvation free energy, 298 K for CCn1ccc(NS(=O)(=O)c2ccc(N)cc2)nc1=O is less than -2 kcal/mol
### Response class 1

---

measurementNotes: solvent given as SMILES
appliedConditions: in COC(C)=O
Catalogue of solvation free energy, 298 K readings, one per entry.
Your answer should be a plain number; it is taken to be in kcal/mol.

A selection of reference data follows.
molecule: ClC=CCl
numericValue: -3.98

molecule: O=C(c1ccccc1)C(O)c1ccccc1 (centres undefined)
numericValue: -15.9

molecule: FC(F)(Cl)C(F)(Cl)Cl
numericValue: -3.38

molecule: C=CCCCC
numericValue: -3.51

molecule: COc1ccc2cc(C(C)C(=O)O)ccc2c1 (centres undefined)
numericValue: -17

molecule: ClC(Cl)Cl
numericValue: -4.67

molecule: CCC1CCCCC1
numericValue: -4.62

molecule: C#CC=C
numericValue: -3.19

Attention now turns to another entry.
Value of measured solvation free energy, 298 K for the entry CC(C)O : -4.46

---

measurementNotes: solvent given as SMILES
appliedConditions: in CC(C)O
Sorting guide: entries reporting solvation free energy, 298 K beneath -9 kcal/mol go in the yes pile, the rest go in the no pile.

Example entries begin here.
compound: Cc1c(C(=O)O)cc([N+](=O)[O-])cc1[N+](=O)[O-]
categoryLabel: yes
//
compound: CCCCCCCCCCCCCCCCO
categoryLabel: yes
//
compound: O=C1c2ccccc2-c2ccccc21
categoryLabel: yes
//
compound: CCCCCCCCCCCCCCCCCCCCO
categoryLabel: yes

### Prompt Report whether reported solvation free energy, 298 K is lower than -9 kcal/mol (strictly) for Cc1cccc(C(=O)O)c1
### Response yes

### Prompt State whether -9 kcal/mol exceeds solvation free energy, 298 K recorded for OC1CCCCC1 .
### Response no

---

measurementNotes: solvent given as SMILES
appliedConditions: in CCCCCCCCCCCCCCCC
metricName: solvation free energy, 298 K (kcal/mol)
Lab book: enter the figure in kcal/mol, no units written.

smilesStructure: CCCCCCCCCC
solvation free energy, 298 K [kcal/mol]: -6.34
//
smilesStructure: CCCC
solvation free energy, 298 K [kcal/mol]: -2.21
//
smilesStructure: CC(C)C
solvation free energy, 298 K [kcal/mol]: -1.91
//
smilesStructure: ClC(Cl)C(Cl)Cl
solvation free energy, 298 K [kcal/mol]: -5.21

Measured solvation free energy, 298 K, CCCC(C)=O : -3.74

---

Each record here notes measured solvation free energy, 298 K.
measurementNotes: solvent given as SMILES
appliedConditions: in O

Record excerpt, results attached:
compound: CCCCCCCCCCCCCCCCCCCCCCCCCCCC
solvation free energy, 298 K: 5.92 kcal/mol
//
compound: CCNc1nc(Cl)nc(NC(C)(C)C#N)n1
solvation free energy, 298 K: -13.2 kcal/mol
//
compound: CC1=CCCC(C)=CCC(C)(C)C=CC1
solvation free energy, 298 K: 0.05 kcal/mol
//
compound: O=[N+]([O-])c1cccc(Cl)c1Cl
solvation free energy, 298 K: -4.22 kcal/mol
//
compound: CCCC(O)CC (stereo not given)
solvation free energy, 298 K: -4.06 kcal/mol
//
compound: O=C(O)c1ccccc1
solvation free energy, 298 K: -6.96 kcal/mol
//
compound: COC(OC)OC
solvation free energy, 298 K: -4.42 kcal/mol
//
compound: CCCCCCCCCCCCCCCCCC
solvation free energy, 298 K: 4.15 kcal/mol
//
compound: CC(F)(F)Cl
solvation free energy, 298 K: 0.61 kcal/mol
//
compound: COC(=O)c1ccc(Cl)c([N+](=O)[O-])c1
solvation free energy, 298 K: -6.89 kcal/mol

Notebook: CCNc1nc(NC(C)C)nc(OC)n1 , solvation free energy, 298 K read as -10.2 kcal/mol

Just so you know, measured solvation free energy, 298 K for CCCCCCCOC(C)=O came out at -2.07 kcal/mol

Recorded solvation free energy, 298 K (compound Clc1ccc(-c2c(Cl)c(Cl)cc(Cl)c2Cl)cc1Cl ): -4.38 kcal/mol

Looking up CCC(=O)CC(=O)CC , I see its solvation free energy, 298 K listed as -4.71 kcal/mol

Form field solvation free energy, 298 K, entry CC(=O)C1CCCCC1 : -3.9 kcal/mol

Sure, the documented solvation free energy, 298 K for Clc1cc(Cl)cc(Cl)c1 is -0.78 kcal/mol

Lab note: measured solvation free energy, 298 K of CCCC(=O)CC was -3.07 kcal/mol

Documented solvation free energy, 298 K of FC(F)(F)C(F)(F)Cl : 2.89 kcal/mol

// sample COC(=O)c1ccc(Cl)c(Cl)c1 , its solvation free energy, 298 K was -3.75 kcal/mol

For reference, reported solvation free energy, 298 K for CCC(=O)c1c(C)[nH]n(-c2ccccc2)c1=O stands at -9.74 kcal/mol
